- assay: NCI Yeast Anticancer Drug Screen. Data for the mlh1 rad18 strain (AID 175)
- reported_conditions: S. cerevisiae mlh1 rad18 strain growth inhibition; at 50.0 µM; hits give high values
This is part of a sample that, as a whole, favours compounds with a hit. Of some 79,000 tested, about 15% had one in any assay.
# key: entry, value: growth inhibition
Respond numerically; units are % and should not be typed.

C=C(C)CNCCN	16.3

Query :: Form field: reported growth inhibition of CCN(CC)CCC1CC/C(=C\c2ccc(OC)cc2)C1=O (centres undefined)
Result :: 21.9

Query :: Query Cc1ccc(S(=O)(=O)/C=C\S(=O)(=O)c2ccc(C)cc2)cc1 next
Result :: 2.7

Query :: Okay, and CN1NC2=NCCN=C3NN(C)C(=NCCN=C1S2)S3 ?
Result :: -36.2

Query :: Moving on to the next molecule: C[Si](C)(C)N1CCCC1
Result :: -6.85

Query :: What would you report for O=C(c1ccccc1)C(c1ccccc1)S(=O)(=O)N1CCCC1 (centres undefined) ?
Result :: 26.9

Query :: Queued: CCCCCC(=O)C(C)=O
Result :: -12.2

Query :: Follow-up item: CN(C)CCNc1ccc(NCCN(C)C)c2c1C(=O)c1ncsc1C2=O
Result :: -16.8

Query :: Another: CCOC(=O)NC(=O)c1cn(CCN2CCN(C(=O)CCCCCCCCCCC(=O)N3CCN(CCn4cc(C(=O)NC(=O)OCC)c(=O)[nH]c4=O)CC3)CC2)c(=O)[nH]c1=O
Result :: 8.55

Query :: Then O=C1CC(NC(=O)C(F)(F)F)c2c(Br)sc(N3CCNCC3)c21 (centres undefined) ?
Result :: -30.4

Query :: Record: C=C1C(=O)O[C@@H]2/C=C(\C)CC/C=C(/COC(C)=O)C[C@@H](OC(C)=O)[C@@H]12
Result :: -30.1

Query :: CNC(=O)C1CCC(CC2CCCCC2)CC1 (centres undefined) ?
Result :: 38.5

Query :: Now try COc1cccc(OC(=O)Nc2cccc(Cl)c2)c1 .
Result :: 51.6

Query :: Now give it for CC1=NN(C(=O)CC(=O)Nc2ccc(C(=O)O)cc2)C(=O)C1N=Nc1ccccc1C(=O)O (centres undefined) too.
Result :: 25.7

Query :: Same thing, different molecule: CCOC(=O)CN(C=O)C(C)c1ccccc1 (centres undefined)
Result :: 20.9

Query :: Try this molecule too: CN(C)c1nc(-c2ccccc2)c(Cc2ccccc2)c(=O)o1
Result :: 7.8

Query :: Now give it for Cc1ccc(S(=O)(=O)N/N=C2/C(=O)N(c3ccc(Cl)cc3C)C(=O)C(=O)C2c2nc3ccccc3s2)cc1 (centres undefined) too.
Result :: 11.2

Query :: Quick one: N#CC(NCc1cccc(CNC(C#N)c2ccccc2)c1)c1ccccc1 (centres undefined)
Result :: -19.8

Query :: Can you check CCCCCCCCCCC(CO)CCCCCCCC (centres undefined) next?
Result :: 4

Query :: Note, next up: CC(=O)Oc1ccc(C(C)(C)C)cc1C
Result :: -21.1
